- assayProtocol: Drug uptake in SCID mouse xenografted with human MOLM16 cells assessed as drug level in plasma at 50 mg/kg, iv measured after 1 hrs by LC-MS/MS
- Format: ADME, organism-based

compound	concentration at 1 h / µg/mL
NC(=O)CC[C@H](NC(=O)[C@@H]1CC[C@@H]2CCN(C(=O)CCCCCC#Cc3cccc4c3CN(C3CCC(=O)NC3=O)C4=O)C[C@H](NC(=O)c3cc4cc(C(F)(F)P(=O)(O)O)ccc4[nH]3)C(=O)N21)C(=O)NC(c1ccccc1)c1ccccc1 (some centres not stated)	103
NC(=O)CC[C@H](NC(=O)[C@@H]1CC[C@@H]2CCN(C(=O)CCCCCC#Cc3cccc4c3CN(C3CCC(=O)NC3=O)C4=O)C[C@H](NC(=O)c3cc4cc(C(=O)P(=O)(O)O)ccc4[nH]3)C(=O)N21)C(=O)NC(c1ccccc1)c1ccccc1 (some centres not stated)	85.5

----------
Listed below: IC50 values for each entry.
- assayProtocol: Antiproliferative activity against human MOLM-16 cells assessed as cell growth inhibition incubated for 4 days by CellTiter-Glo asssay
- Assay type: functional, cell-based
- conditionInfo: MOLM16, 96 h

compound	cmp	IC50, nM
NC(=O)CC[C@H](NC(=O)[C@@H]1CC[C@@H]2CCN(C(=O)CCCCCC#Cc3cccc4c3CN(C3CCC(=O)NC3=O)C4=O)C[C@H](NC(=O)c3cc4cc(C(=O)P(=O)(O)O)ccc4[nH]3)C(=O)N21)C(=O)NC(c1ccccc1)c1ccccc1 (some centres undefined)	=	170
NC(=O)CC[C@H](NC(=O)[C@@H]1CC[C@@H]2CCN(C(=O)CCCCCC#Cc3cccc4c3CN(C3CCC(=O)NC3=O)C4=O)C[C@H](NC(=O)c3cc4cc(C(F)(F)P(=O)(O)O)ccc4[nH]3)C(=O)N21)C(=O)NC(c1ccccc1)c1ccccc1 (some centres undefined)	=	180
CC(=O)N1CC[C@H]2CC[C@@H](C(=O)N[C@@H](CCC(N)=O)C(=O)NC(c3ccccc3)c3ccccc3)N2C(=O)[C@@H](NC(=O)c2cc3cc(C(F)(F)P(=O)(O)O)ccc3[nH]2)C1	>	10000
CC(=O)N1CC[C@H]2CC[C@@H](C(=O)N[C@@H](CCC(N)=O)C(=O)NC(c3ccccc3)c3ccccc3)N2C(=O)[C@@H](NC(=O)c2cc3cc(C(=O)P(=O)(O)O)ccc3[nH]2)C1	>	10000

Hello, the source for this data is ChEMBL document CHEMBL4706770, in case you need it.
